TEST_SYSTEM: Aurora kinase C (Homo sapiens) (UniProt Q9UQB9);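 note: reported value is a mean inhibition of Aurora-C from the GSK PKIS screening panel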
Sequence (whole entry): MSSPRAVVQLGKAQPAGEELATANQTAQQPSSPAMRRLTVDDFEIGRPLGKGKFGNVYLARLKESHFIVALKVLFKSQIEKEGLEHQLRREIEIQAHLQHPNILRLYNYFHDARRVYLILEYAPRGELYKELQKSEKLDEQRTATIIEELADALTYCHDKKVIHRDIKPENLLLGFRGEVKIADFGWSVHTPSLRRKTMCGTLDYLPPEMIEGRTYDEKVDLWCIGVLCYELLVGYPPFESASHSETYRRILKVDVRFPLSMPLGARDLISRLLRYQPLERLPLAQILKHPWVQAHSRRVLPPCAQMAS
TEST_SETTINGS: at 1 µM
Could you please report measured inhibition for the items listed next?
Just the number please, in %, no unit attached.

(Q) Fill in: inhibition of Cc1cc(O)cc(C)c1/C=C/c1cncc(-c2nn[nH]n2)c1 is ___
(A) -0.15

(Q) # lookup: inhibition of Cc1nnc(-c2ccc(C)c(-c3ccc(C(=O)Nc4cccc(C#N)c4)cc3)c2)o1
(A) -2.81

(Q) Requested field: inhibition. Item: COc1ccc(-c2nn3ncccc3c2-c2ccnc(Nc3ccc(Cl)c(C(F)(F)F)c3)n2)cc1
(A) -3.91

(Q) What inhibition value was documented for this compound, O=C1NC(=O)C(c2ccccc2Cl)=C1Nc1cccc(O)c1 ?
(A) 7.14

(Q) Dear colleague, I am looking for the recorded inhibition of the following compound: CN(C)c1cc2c(Nc3ccc4nc(Cc5ccccc5)[nH]c4c3)ncnc2cn1
(A) 40.3

(Q) I have this compound here, CC1=C(C(=O)Nc2ccc3[nH]ncc3c2)C(c2ccc3ccccc3c2)CC(=O)N1 (configuration not stated) , and I need its recorded inhibition.
(A) 32.8

(Q) Entry Cc1ccc(NC(=O)c2ccnc(N3CCCC3)c2)cc1-c1ccc(C(=O)NCC2CC2)cc1 has what inhibition?
(A) 7.12

(Q) Bench note: what inhibition did CCn1c(-c2nonc2N)nc2cncc(C(=O)N3CCNCC3)c21 show?
(A) 1.12

(Q) Could you tell me which inhibition is on file for Fc1cccc(COc2ccc(Nc3ncnc4sc(-c5cccs5)cc34)cc2Cl)c1 ?
(A) 7.89

(Q) Quick one: inhibition of CCn1c(-c2nonc2N)nc2c(C#CC(C)(C)O)nc(CN3CCCC3)cc21 ?
(A) 23.3

(Q) What value of inhibition has been reported for the following compound? COc1cc(C=NNc2ncnc3c2cnn3-c2ccccc2)ccc1O
(A) 88.3

(Q) What value of inhibition has been reported for the following compound? CCn1c(-c2nonc2N)nc2ccncc21
(A) 6.04

(Q) # lookup: inhibition of COc1cc2ncn(-c3cc(O[C@@H](C)c4ccccc4Cl)c(C(N)=O)s3)c2cc1OC
(A) 49.3

(Q) So what's the measured inhibition for this one? COc1cc2c(cc1Nc1nc(N3CCc4ccccc43)c3cc[nH]c3n1)N(C(=O)CN(C)C)CC2
(A) 8.2

(Q) # input compound: NC(=O)c1cccc(Nc2nccc(Nc3cccc4[nH]ncc34)n2)c1 ; wanted: its inhibition
(A) 100

(Q) Give the measured inhibition of Cc1ccc(C(=O)NC2CCCCC2)cc1-c1ccc(C(=O)NCC2CC2)cc1 .
(A) 14

(Q) Give the measured inhibition of CCCN1CCC=C(c2ccc(Nc3nc(Nc4ccccc4C(N)=O)c4cc[nH]c4n3)c(C)c2)C1 .
(A) 13.7

(Q) I'd like to know its inhibition. The compound in question is Cc1nn(C)c2cc(N(C)c3ccnc(Nc4cccc(S(N)(=O)=O)c4)n3)ccc12
(A) 93

(Q) # input compound: COc1cc2ncn(-c3cc(OCc4ccccc4Cl)c(C(N)=O)s3)c2cc1OC ; wanted: its inhibition
(A) 40.5

(Q) Look up inhibition: O=C(Nc1n[nH]c2nc(-c3ccco3)c(Br)cc12)C1CC1
(A) 29.4

(Q) Consider the compound CS(=O)(=O)CCN(CC#N)Cc1ccc(-c2ccc3ncnc(Nc4ccc(OCc5cccc(F)c5)c(Cl)c4)c3c2)o1 and give its measured inhibition.
(A) 1.4

(Q) If you can, please state the reported inhibition value of COC(=O)Nc1nc2cc(Oc3ccc(NC(=O)Nc4cccc(C(=O)O)c4)cc3)ccc2[nH]1 .
(A) 37.7

(Q) Could you share which inhibition value was measured for COc1cc(C)c(NC(=O)CN(C)C)cc1Nc1nc(Nc2cccc(F)c2C(N)=O)c2cc[nH]c2n1 ?
(A) 12.3

(Q) // inhibition lookup, key: CCn1c(-c2nonc2N)nc2cncc(C(=O)N3CC[C@H](N)C3)c21
(A) -2.29

(Q) Which inhibition reading was recorded for the compound COc1cc2ncn(-c3cc(OCc4ccccc4C(F)(F)F)c(C(N)=O)s3)c2cc1OC ?
(A) 35.9

(Q) Please give the measured inhibition for this compound: [O-][S+]1CCN(Cc2ccc(-c3ccc4ncnc(Nc5ccc(OCc6ccccc6)c(F)c5)c4c3)o2)CC1
(A) 7.34

(Q) Entry COc1ccc(-c2ccncc2)cc1C(N)=O has what inhibition?
(A) 5.22

(Q) Reported inhibition for COc1cc2ncn(-c3cc(O[C@H](C)c4ccccc4Cl)c(C(N)=O)s3)c2cc1OC : what is it?
(A) 50.7

(Q) Please look up its inhibition: CS(=O)(=O)CCNCc1nc(-c2ccc3ncnc(Nc4ccc(F)c(Cl)c4)c3c2)cs1
(A) -0.59

(Q) Return reported inhibition; argument: CC(C)=Cc1cccc2c1/C(=N/Nc1ccc(S(N)(=O)=O)cc1)C(=O)N2
(A) 65.6

(Q) Given CCn1c(-c2nonc2N)nc2cnc(Oc3cccc(NC(=O)c4ccc(OCCN5CCOCC5)cc4)c3)cc21 , state its recorded inhibition.
(A) 4.33

(Q) Any idea what inhibition was measured for CC1=C(C(=O)Nc2ccc3[nH]ncc3c2)C(c2ccc(F)cc2)NC(=O)N1 (configuration not stated) ?
(A) 26.9

(Q) May I ask what inhibition has been recorded for CCn1c(-c2nonc2N)nc2c(C#CC(C)(C)O)nc(OC[C@@H](N)c3ccccc3)cc21 ?
(A) -0.02

(Q) Given the entry CC(=O)Nc1cccc(C#Cc2cncnc2Nc2ccc(OCc3cccc(F)c3)c(Cl)c2)n1 , report its measured inhibition.
(A) -5.73

(Q) Reported inhibition for O=C1NC(=O)C(c2cccc(Cl)c2)=C1Nc1ccc(O)c(Cl)c1 : what is it?
(A) 13.1

(Q) Item COc1ccc2cc(-c3c(-c4ccncc4)nc(-c4ccc([S+](C)[O-])cc4)n3C)ccc2c1 (configuration not stated) has what recorded inhibition?
(A) 15.4

(Q) What does the record list as inhibition for Cn1cc(C=C2C(=O)Nc3cccnc32)c2ccccc21 ?
(A) 62.6

(Q) Data request, read-out inhibition, for COc1cccc(-n2ncc3c(N/N=C/c4cccc(F)c4)ncnc32)c1
(A) 1.75

(Q) Recorded inhibition of O=C1NC(=O)C(N2CCc3ccccc32)=C1c1ccc(Cl)cc1 , please.
(A) 15.9

(Q) Please give the measured inhibition for this compound: Cc1cccc(-c2n[nH]cc2-c2ccc3ncccc3n2)n1
(A) -2.95

(Q) Using the record for NS(=O)(=O)c1cccc(-c2ccc3c(NC(=O)C4CC4)n[nH]c3c2)c1 , report its inhibition.
(A) 2.43

(Q) Given the entry NCc1ccc(-c2nc(-c3ccc(Cl)c(O)c3)c(-c3ccncc3)[nH]2)cc1 , report its measured inhibition.
(A) 5.03

----------
TEST_SYSTEM: Vascular endothelial growth factor receptor 3 (Homo sapiens)
TEST_SETTINGS: at 0.1 µM
Description: GSK_PKIS: FLT4 mean inhibition at 0.1 uM [Nanosyn]
Assignment: determine reported inhibition for the given compounds.
Unit % implied. Number only.

(Q) Form field: reported inhibition of CS(=O)(=O)Nc1ccc(N/C=C2\C(=O)Nc3ccccc32)cc1
(A) 4.02

(Q) Requested field: inhibition. Item: COc1cc2ncn(-c3cc(OCc4ccccc4C(F)(F)F)c(C(N)=O)s3)c2cc1OC
(A) 6.89

(Q) What does the record list as inhibition for Nc1ncnc2occ(-c3ccc(NC(=O)Nc4cccc(C(F)(F)F)c4)cc3)c12 ?
(A) 53

(Q) I have this compound here, COc1ccc(-c2ccncc2)cc1C(N)=O , and I need its recorded inhibition.
(A) 3.2

(Q) Value lookup for inhibition; key = Cc1nnc(-c2ccc(C)c(-c3ccc(C(=O)Nc4cccc(C#N)c4)cc3)c2)o1
(A) -1.08

----------
TEST_SYSTEM: Phosphatidylinositol 4-kinase beta (Homo sapiens) (UniProt Q9UBF8);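 note: values given are mean percent inhibition of PI4K-beta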
Sequence (Q9UBF8 2-816 limits assumed): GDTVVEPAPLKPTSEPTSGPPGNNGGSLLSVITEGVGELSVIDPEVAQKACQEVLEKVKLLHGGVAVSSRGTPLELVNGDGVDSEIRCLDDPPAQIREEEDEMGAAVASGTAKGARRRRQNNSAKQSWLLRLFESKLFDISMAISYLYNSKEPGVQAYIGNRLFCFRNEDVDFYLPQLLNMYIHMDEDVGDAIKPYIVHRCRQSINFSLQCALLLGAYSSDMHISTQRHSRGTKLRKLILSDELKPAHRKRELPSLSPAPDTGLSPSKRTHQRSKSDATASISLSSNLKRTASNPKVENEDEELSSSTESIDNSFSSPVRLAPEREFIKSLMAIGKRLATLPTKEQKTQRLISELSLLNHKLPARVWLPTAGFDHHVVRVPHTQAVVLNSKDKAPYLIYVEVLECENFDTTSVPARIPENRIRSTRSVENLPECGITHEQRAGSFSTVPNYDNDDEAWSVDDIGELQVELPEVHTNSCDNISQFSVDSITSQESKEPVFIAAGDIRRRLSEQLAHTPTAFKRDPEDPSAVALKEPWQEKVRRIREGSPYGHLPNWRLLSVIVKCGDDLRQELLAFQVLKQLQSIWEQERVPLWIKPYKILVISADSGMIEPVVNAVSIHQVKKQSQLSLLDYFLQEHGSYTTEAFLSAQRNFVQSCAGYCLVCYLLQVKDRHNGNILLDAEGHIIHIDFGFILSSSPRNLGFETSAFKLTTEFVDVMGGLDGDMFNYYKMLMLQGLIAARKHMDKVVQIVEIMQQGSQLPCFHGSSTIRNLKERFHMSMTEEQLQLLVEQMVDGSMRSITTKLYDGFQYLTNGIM
TEST_SETTINGS: at 0.1 µM
READOUT_NAME: inhibition (%)
The reply should be a number in %, with the unit left off.

(Q) Return reported inhibition; argument: CCn1c(-c2nonc2N)nc2c(C#CC(C)(C)O)nc(CN3CCCC3)cc21
(A) -0.02

(Q) So what does the record say about inhibition for Nc1nc(-c2ccc3c(c2)C(=Cc2cc(Br)c(O)c(Br)c2)C(=O)N3)cs1 ?
(A) 36.1

(Q) Which inhibition is reported for this molecule? COc1ccccc1Nc1ncc(-c2ccccc2)o1
(A) -0.97

(Q) Give the measured inhibition of Cc1nnc(-c2ccc(C)c(-c3ccc(C(=O)Nc4cccc(C#N)c4)cc3)c2)o1 .
(A) -1.86

(Q) GET /values?readout=inhibition&item= Fc1cccc(COc2ccc(Nc3ncnc4sc(-c5cccs5)cc34)cc2Cl)c1
(A) 0.44

(Q) So what does the record say about inhibition for Cc1ccc(NC(=O)c2ccnc(N3CCCC3)c2)cc1-c1ccc(C(=O)NCC2CC2)cc1 ?
(A) -4.29

(Q) What does the record list as inhibition for CN(C)c1cc2c(Nc3ccc4nc(Cc5ccccc5)[nH]c4c3)ncnc2cn1 ?
(A) -2.6

(Q) Entry COc1cc2ncn(-c3cc(OCc4ccccc4C(F)(F)F)c(C(N)=O)s3)c2cc1OC has what inhibition?
(A) -3.15

(Q) Given the molecule COc1ccc(-c2nn3ncccc3c2-c2ccnc(Nc3ccc(Cl)c(C(F)(F)F)c3)n2)cc1 , what is its reported inhibition?
(A) -1.86

(Q) What value of inhibition has been reported for the following molecule? CCn1c(-c2nonc2N)nc2cncc(C(=O)N3CC[C@H](N)C3)c21
(A) -6.46

(Q) Field request: inhibition | item: CS(=O)(=O)CCNCc1nc(-c2ccc3ncnc(Nc4ccc(F)c(Cl)c4)c3c2)cs1
(A) 6.61

(Q) Which measured inhibition value corresponds to COC(=O)Nc1nc2cc(Oc3cccc(NC(=O)Nc4cc(C(F)(F)F)ccc4F)c3)ccc2[nH]1 ?
(A) 1.18

(Q) Item under review: COc1ccc(-c2coc3ncnc(N)c23)cc1 . Reported inhibition?
(A) 2.15

(Q) inhibition for Nc1ncnc2occ(-c3ccc(NC(=O)Nc4cc(C(F)(F)F)cc(C(F)(F)F)c4)cc3)c12 ?
(A) 1.16

FYI, the data here is from ChEMBL document CHEMBL1961873.
